Test system: SBK1
Settings: concentration: 1 μM, replicates: in singlicate; n = 1;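 note: KINOMEscan kinase panel screen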
Output class 1 for records whose %Inh is lower than 20%, class 0 for records at or above 20%.

input: Just wondering, is %Inh of "COc1cc2c(cc1OCCN1CCNCC1)ncc1c3ccc(C#N)cc3[nH]c21" below 20%?
output: class 0

input: Just wondering, is %Inh of Cl.NC(=O)c1cccc(Nc2nccc(Nc3ccc(Oc4c(Cl)cccc4Cl)c(Cl)c3)n2)c1 [GW659009] below 20%?
output: class 0

input: Just wondering, is %Inh of O=c1[nH]cc(-c2ccc(N3CCOCC3)cc2)c2sc(-c3cn[nH]c3)cc12 [GSK2276055] below 20%?
output: class 1

input: Just wondering, is %Inh of CCS(=O)(=O)c1ccc(OC)c(Nc2nccc(-c3c(-c4cccc(NC(=O)c5c(F)cccc5F)c4)nn4ncccc34)n2)c1 [GSK326180] below 20%?
output: class 1

input: Just wondering, is %Inh of Cn1cc(-c2ccc3c(c2)CCN3C(=O)Cc2cccc(Cl)c2)c2c(N)ncnc21 [GSK2606590] below 20%?
output: class 1

input: Just wondering, is %Inh of C[C@@H](Oc1cc(-n2cnc3cc(-c4ccnc(NCCS(C)(=O)=O)c4)ccc32)sc1C(N)=O)c1ccccc1Cl [GSK907232] below 20%?
output: class 1

###

Test system: MARK2
Conditions: concentration: 1 μM, replicates: in singlicate; n = 1
Please go through the items and note down their %Inh.
The figure you give is taken to be in %; do not add the unit.

input: Name the recorded %Inh for Cn1cc(-c2ccc3c(c2)CCN3C(=O)Cc2cccc(F)c2)c2c(N)ncnc21 [GSK2603358] .
output: 0

input: Name the recorded %Inh for COc1ccc(CNC(=O)NC2CCN(c3ccnc(Nc4ccc(F)cc4)n3)CC2)cc1 [GSK1379788] .
output: 0

input: Name the recorded %Inh for COc1cccc(C2=C(Nc3ccc(Cl)c(C(=O)O)c3)C(=O)NC2=O)c1 [SB-390769] .
output: 0

input: Name the recorded %Inh for Nc1ncc(-c2ccc3nccc(-c4ccncc4)c3c2)cc1S(=O)(=O)N1CCOCC1 [GSK1627798] .
output: 0

input: Name the recorded %Inh for O=C(O)C(F)(F)F.O=C(O)C(F)(F)F.O=c1[nH]ccc2nc(N[C@@H]3CCCNC3)nc(Nc3ccc(S(=O)(=O)N4CCOCC4)cc3)c12 [GSK2177277] .
output: 98.2

input: Name the recorded %Inh for COc1cc(Nc2nccc(N3CCC(NC(=O)c4cc5ccccc5s4)C3)n2)cc(OC)c1OC (stereo not drawn) [GSK1379760] .
output: 12

input: Name the recorded %Inh for c1ccc(-c2n[nH]cc2Nc2ccnc3ccccc23)nc1 [GW694077] .
output: 0

input: Name the recorded %Inh for CSc1cccc2c(-c3ccncn3)c(-c3ccc(F)cc3)nn12 [GW514786] .
output: 0

input: Name the recorded %Inh for Cl.Cl.NCC(NCc1ccc(-c2ccnc3[nH]ccc23)s1)c1ccccc1 (stereo not drawn) [GSK1321565] .
output: 0

input: Name the recorded %Inh for CC(C)(C)c1ccc2nccc(Nc3cccc(O)c3)c2c1 [GW856795] .
output: 2

input: Name the recorded %Inh for "Cc1ccc(C(=O)N2CC[C@@H](O)C2)cc1-n1c(C)cc(OCc2ccc(F)cc2F)c(Br)c1=O" .
output: 0

input: Name the recorded %Inh for FC(F)(F)c1ccc(/C=C/c2cncnc2Nc2ccc3[nH]c(Cc4ccccc4)nc3c2)cc1 [GW709199] .
output: 0

input: Name the recorded %Inh for Cc1cccc(Nc2nc(N[C@H]3CCNC3)ncc2C(N)=O)c1.Cl [GSK2197149] .
output: 19

input: Name the recorded %Inh for Cc1occc1-c1ncc(OC[C@@H](N)Cc2c[nH]c3ccccc23)cc1-c1ccc2[nH]nc(C)c2c1.O=C(O)C(F)(F)F [GSK682037] .
output: 62

input: Name the recorded %Inh for Cc1ccc(C)c(NC(=O)NC2CCN(c3ccnc(Nc4ccc(F)cc4)n3)C2)c1 (stereo not drawn) [GSK1379720] .
output: 0

input: Name the recorded %Inh for "COCCOCCOc1cc2ncc3c4ccc(C#N)cc4[nH]c3c2cc1OC" .
output: 13

input: Name the recorded %Inh for O=c1[nH]cc(-c2ccc(N3CCOCC3)cc2)c2sc(-c3cn[nH]c3)cc12 [GSK2276055] .
output: 0

input: Name the recorded %Inh for Cc1ccc(S(=O)(=O)Nc2ccc(Nc3nccc(Nc4cccc5[nH]ncc45)n3)cc2)cc1 [GSK581271] .
output: 0

input: Name the recorded %Inh for NCCCC(NC(=O)c1cc(Br)c(-c2ccnc3[nH]ccc23)s1)c1ccccc1.O=C(O)C(F)(F)F.O=C(O)C(F)(F)F (stereo not drawn) [GSK1287544] .
output: 2

input: Name the recorded %Inh for O=C(Nc1cccc(-c2nn3ccccc3c2-c2ccnc(Nc3cccc(C(F)(F)F)c3)n2)c1)c1c(F)cccc1F [GSK292658] .
output: 0

input: Name the recorded %Inh for CN(C)Cc1ccc(-c2ccc3c(Nc4ccc(Oc5ccccn5)cc4)ccnc3c2)o1 [GW567148] .
output: 0

###

Tested on: PIM3
Conditions: concentration: 1 μM, replicates: in singlicate; n = 1
Please go through the items and note down their %Inh.
The figure you give is taken to be in %; do not add the unit.

input: Name the recorded %Inh for CCCCc1nn2ncccc2c1-c1ccnc(Nc2ccc(N3CCN(C)CC3)cc2)n1 [GW684941] .
output: 0

input: Name the recorded %Inh for COc1ccc(Nc2nccc(NCCNC(=O)c3cc4ccccc4s3)n2)cc1 [GSK1379896] .
output: 2

input: Name the recorded %Inh for Cc1ccc(C(=O)Nc2ccc(Nc3ccnc4cc(-c5nccs5)ccc34)cc2O)cc1.Cl [GW494702] .
output: 0

input: Name the recorded %Inh for COc1cccc(NC(=O)NC2CCN(c3ccnc(Nc4cc(OC)c(OC)c(OC)c4)n3)C2)c1 (stereo not shown) [GSK1379763] .
output: 0

input: Name the recorded %Inh for NCCCC(NC(=O)c1cc(Br)c(-c2ccnc3[nH]ccc23)s1)c1ccccc1.O=C(O)C(F)(F)F.O=C(O)C(F)(F)F (stereo not shown) [GSK1287544] .
output: 22

input: Name the recorded %Inh for Cn1cc(-c2ccc3c(c2)CCN3C(=O)Cc2cccc(F)c2)c2c(N)ncnc21 [GSK2603358] .
output: 0

input: Name the recorded %Inh for COc1cc(Nc2nccc(N3CCC(NC(=O)Nc4cccc(C(C)=O)c4)C3)n2)cc(OC)c1OC (stereo not shown) [GSK1379753] .
output: 0

input: Name the recorded %Inh for Nc1ncc(-c2cccnc2)c2scc(-c3ccc4c(c3)CCN4C(=O)Cc3ccccc3)c12 [GSK683281] .
output: 0

input: Name the recorded %Inh for CSc1cccc2c(-c3ccncn3)c(-c3ccc(F)cc3)nn12 [GW514786] .
output: 15

input: Name the recorded %Inh for O=C(Nc1n[nH]c2cc(-c3ccoc3)ccc12)C1CC1 [SB-738481] .
output: 0

###

Test system: MINK
Construct: gene MINK1
Settings: concentration: 1 μM, replicates: in singlicate; n = 1
Please go through the items and note down their %Inh.
The figure you give is taken to be in %; do not add the unit.

input: Name the recorded %Inh for COC(=O)Nc1nc2cc(Oc3ccc(NC(=O)Nc4cc(C(F)(F)F)ccc4F)cn3)ccc2[nH]1.Cl.Cl [GW681170] .
output: 18

input: Name the recorded %Inh for Cl.Cl.NCC(C(=O)Nc1cc(Br)c(-c2ccnc3[nH]ccc23)s1)c1ccccc1 (stereo not drawn) [GSK1269851] .
output: 8

input: Name the recorded %Inh for "COc1cc2c(cc1OCCN1CCNCC1)ncc1c3ccc(C#N)cc3[nH]c21" .
output: 86

input: Name the recorded %Inh for "CCc1ccc(-c2ccc3c(c2)-c2c(cnn2C)S(=O)(=O)N3C)cc1" .
output: 0

input: Name the recorded %Inh for "O=C(Nc1cccc(Oc2ccc3nc(NC(=O)C4CC4)cn3n2)c1)c1ccccc1C(F)(F)F" .
output: 2

input: Name the recorded %Inh for COc1cc(Nc2nccc(N3CCC(NC(=O)Nc4cccc(C(C)=O)c4)C3)n2)cc(OC)c1OC (stereo not drawn) [GSK1379753] .
output: 0

input: Name the recorded %Inh for Nc1n[nH]c2cnc(-c3ccccc3)cc12 [SB-642124] .
output: 53

input: Name the recorded %Inh for O=C(Nc1n[nH]c2nc(-c3ccc(O)cc3)ccc12)C1CC1 [SB-710363] .
output: 72

input: Name the recorded %Inh for COc1cc(Nc2ncc3c(C)nc(-c4cc5ccccc5[nH]4)n3n2)cc(OC)c1OC [GW869516] .
output: 1

input: Name the recorded %Inh for Nc1ncnc2c1nc(-c1ccccc1)n2-c1ccccc1 [SKF-97293] .
output: 16

input: Name the recorded %Inh for O=C(Nc1cccc(-c2nn3ncccc3c2-c2ccnc(Nc3ccccc3)n2)c1)c1c(F)cccc1F [GSK198271] .
output: 23

input: Name the recorded %Inh for CN1CCN(CCCNc2nccc(-c3c(-c4ccc(F)cc4)nn4cc(C(F)(F)F)ccc34)n2)CC1 [GW621581] .
output: 17

input: Name the recorded %Inh for "CC(=O)Nc1nc2cnc(Nc3cc(NC(=O)c4cccc(C5(C#N)CC5)c4Cl)ccc3C)nc2s1" .
output: 0

input: Name the recorded %Inh for Cc1ccc(S(=O)(=O)Nc2ccc(Nc3nccc(Nc4cccc5[nH]ncc45)n3)cc2)cc1 [GSK581271] .
output: 0

input: Name the recorded %Inh for O=C(O)C(F)(F)F.O=C(O)C(F)(F)F.O=c1[nH]ccc2nc(N[C@@H]3CCCNC3)nc(Nc3ccc(S(=O)(=O)N4CCOCC4)cc3)c12 [GSK2177277] .
output: 98.1

input: Name the recorded %Inh for COc1cc(Nc2nccc(-c3c(-c4cccc(NC(=O)c5c(F)cccc5F)c4)nn4ncccc34)n2)cc(OC)c1OC [GSK327238] .
output: 44

input: Name the recorded %Inh for Cc1occc1-c1ncc(OC[C@@H](N)Cc2c[nH]c3ccccc23)cc1-c1ccc2[nH]nc(C)c2c1.O=C(O)C(F)(F)F [GSK682037] .
output: 97.2

input: Name the recorded %Inh for CC(C)c1nc(-c2cccc(NS(=O)(=O)c3c(F)cccc3F)c2F)c(-c2ccnc(Nc3ccc(N4CCOCC4)nc3)n2)s1 [GSK2008607] .
output: 60

input: Name the recorded %Inh for Cl.c1ccc(-c2ccc3c(Nc4ccc5[nH]ncc5c4)ccnc3c2)nc1 [GW440137] .
output: 43

input: Name the recorded %Inh for COc1ccc(Nc2nccc(NCCNC(=O)c3cc4ccccc4s3)n2)cc1 [GSK1379896] .
output: 2

input: Name the recorded %Inh for O=C(NC1CCN(c2ccnc(Nc3ccc(F)cc3)n2)C1)c1cc2ccccc2s1 (stereo not drawn) [GSK1379716] .
output: 0
